Target under test: T1, recombinant human TIGIT (human, UniProt Q495A1 22-141, limits assumed)
T1 construct: recombinant human TIGIT used in Carterra SPR; also called hTIGIT
T1 sequence (looked up): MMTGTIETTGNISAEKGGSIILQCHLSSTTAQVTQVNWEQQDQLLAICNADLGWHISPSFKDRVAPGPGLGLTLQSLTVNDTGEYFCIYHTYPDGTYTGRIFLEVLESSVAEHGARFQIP
Experimental details: SPR Carterra, average
Observed property: Kd (nM)

- TIGIT-SC15 (Fc fusion, VHH-Fc fusion in assay) VHH: EVQLVESGGGLVQPGGSLRLSCAASGSILSFNHIGWFRQAPGKEREGVAWIARYDGSTLYADSVKGRFTISADNSKNTAYLQMNSLKPEDTAVYYCARARGGYVDYWGQGTLVTVSS: 62
